Taken from PubChem BioAssay.

test: RPMI8226 myeloma cell viability, profiling panel, resazurin fluorescence, basal, 24 h, PK04 Diversity Set (AID 1180); conditions: higher = more signal;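 also: RPMI8826 multiple myeloma cell line at 5000 cells per well; test concentration not given here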
measuredParameter: z-score

compound	measuredParameter	resultValue
O=C1[C@H]2[C@H]3[C@H](O)[C@H](O)CC(=NOCc4ccccc4)[C@H]3CC[C@H]2C(=O)N1c1ccc(F)cc1F	z-score	1.28
CCc1cccc(NC(=O)O[C@H]2[C@H](OC(=O)Nc3ccc4c(c3)OCO4)[C@@H](OC(=O)Nc3ccc4c(c3)OCO4)[C@@H](OC)O[C@@H]2CO)c1	z-score	-0.36
Cc1cc2c(c(=O)o1)[C@H](O)[C@H]1O[C@H]1C2=O	z-score	-0.764
COC(=O)[C@H](C)NC(=O)CCC1CC(OC(=O)NCc2cccc3ccccc23)CC2(CCCC(COC(=O)NCCc3ccc(Cl)cc3)O2)O1 (stereo partly drawn)	z-score	0.413
COc1ccc([Si](C)(C)[C@H]2[C@H](CCO)O[C@@]3(C(=O)N(Cc4cccc(NC(=O)[C@H](C)O)c4)c4ccccc43)[C@@H]2C)cc1	z-score	-6.16
COC(=O)[C@@]1(Cc2ccccc2)[C@H]2c3cc(C(=O)N4CCCC4)n(Cc4ccccn4)c3C[C@H]2CN1C(=O)c1ccccc1	z-score	-2.32
COC(=O)C1=C(C)[C@@H](O)[C@@H](C)[C@H](c2c(OC)c(OC)c(C)c(OC)c2OC)O1	z-score	-0.529
c1ccc(C2NCCc3c2[nH]c2ccccc32)cc1 (stereo not drawn)	z-score	-0.326

---

Reported composite z-score by item:
test: binders from COS7 lysate, DM2A8 probe, primary screen, torsin A project, cell lysate, small-molecule microarray, fluorescence 635/667 (AID 1065); settings: higher = more signal, COS7 lysate expressing mutant human TOR1A

compound	composite z-score
CC(CCC(=O)OC[C@H]1O[C@H](C#Cc2ccccc2)C=C[C@@H]1Oc1ccc(C)cc1)=NOC[C@@H](O)[C@H]1O[C@@H]2OC(C)(C)O[C@@H]2[C@H]1O	-0.587
CC(C)N1CC=CC23O[C@@H]4C=CCCOC(=O)C4[C@H]2C(=O)N(CCCCCCO)[C@@H]3C1=O (some centres undefined)	-1.93
CCN1C(=O)[C@H]2[C@H]3[C@H](O)C=CC(=O)[C@@H]3CC[C@H]2C1=O	0.236
CC(C)CON=C1C[C@@H](O)[C@@H](O)[C@@H]2[C@@H]3C(=O)N([C@@H](C)c4ccccc4)C(=O)[C@@H]3CC[C@H]12	-0.0881

---

target: Alpha-bungarotoxin (Bungarus multicinctus) (UniProt P60615); test: alpha-bungarotoxin binders on microarray, profiling panel, artefact control for SMM control protein annotation, biochemical, small-molecule microarray, Alexa647 label, 635/667 nm fluorescence (AID 1117); settings: alpha-BTX-A647 binding fluorescence, higher = more signal
Sequence (P60615 whole entry, looked up): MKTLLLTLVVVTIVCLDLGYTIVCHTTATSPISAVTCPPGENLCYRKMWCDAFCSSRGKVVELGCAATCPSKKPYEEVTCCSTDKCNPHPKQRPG
Returns one of fulfilled or not fulfilled; fulfilled when composite z-score is >= 0.6.

compound	testSystem	categoryLabel
COC(=O)[C@H](C)NC(=O)CCC1CC(OC(=O)NCc2cccc3ccccc23)CC2(CCCC(COC(=O)NCCc3ccc(Cl)cc3)O2)O1 (stereo partly drawn)	Alpha-bungarotoxin (Bungarus multicinctus) (UniProt P60615)	not fulfilled
CCOC(=O)[C@H](Cc1ccccc1)NC(=O)CCC1CC(OC(=O)NCc2ccc3c(c2)OCO3)CC2(CCCC(COC(=O)NCC3CCCCC3)O2)O1 (stereo partly drawn)	Alpha-bungarotoxin (Bungarus multicinctus) (UniProt P60615)	fulfilled
CC(CCN1CCc2nc(-c3ccccc3)c(-c3ccccc3)cc2C1)=NO[C@@H](C)c1cn([C@H](CO)Cc2ccccc2)nn1	Alpha-bungarotoxin (Bungarus multicinctus) (UniProt P60615)	fulfilled
Cn1cccc1C(O)C1C=CC2C(=O)NC(=O)C2N1Nc1ccccn1 (stereo not drawn)	Alpha-bungarotoxin (Bungarus multicinctus) (UniProt P60615)	not fulfilled
COC(=O)CC1OC1[C@H](C)[C@@H](OC)C(C)C (stereo partly drawn)	Alpha-bungarotoxin (Bungarus multicinctus) (UniProt P60615)	fulfilled
COCC1=C2[C@@H](CCc3ccccc3)OB(O)C[C@@H]2n2c(=O)n(-c3ccccc3)c(=O)n2C1	Alpha-bungarotoxin (Bungarus multicinctus) (UniProt P60615)	not fulfilled
COc1ccc(OC[C@H]2Cc3c(-c4ccccc4)nc4c(c3CO2)CN(CCOc2ccccc2)CC4)cc1	Alpha-bungarotoxin (Bungarus multicinctus) (UniProt P60615)	fulfilled
CCc1cc2c(nc1CC)CCN(CCC(C)=NOC[C@@H](O)COCc1ccco1)C2	Alpha-bungarotoxin (Bungarus multicinctus) (UniProt P60615)	fulfilled
